B1: library; numbered along this chain (parent)
chain: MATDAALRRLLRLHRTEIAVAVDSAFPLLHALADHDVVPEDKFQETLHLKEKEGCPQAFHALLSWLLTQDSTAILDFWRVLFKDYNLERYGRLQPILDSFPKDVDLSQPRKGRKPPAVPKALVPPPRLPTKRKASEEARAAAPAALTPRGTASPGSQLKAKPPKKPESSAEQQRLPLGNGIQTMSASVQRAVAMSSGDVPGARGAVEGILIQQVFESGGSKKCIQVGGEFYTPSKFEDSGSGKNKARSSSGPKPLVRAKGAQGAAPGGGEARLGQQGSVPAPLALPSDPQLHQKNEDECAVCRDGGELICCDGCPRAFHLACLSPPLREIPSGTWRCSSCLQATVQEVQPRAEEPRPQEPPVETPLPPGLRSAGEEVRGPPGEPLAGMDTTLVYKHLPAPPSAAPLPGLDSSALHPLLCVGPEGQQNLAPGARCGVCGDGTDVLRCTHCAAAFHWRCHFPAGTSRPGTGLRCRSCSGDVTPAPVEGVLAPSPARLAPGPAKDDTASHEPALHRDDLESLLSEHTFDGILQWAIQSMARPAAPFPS

variants of: B1; assay: AIRE transcriptional activation functional score (insulin promoter-GFP; nonsense median 0, synonymous median 1) (normalised score); higher = higher AIRE activity (more reporter activation); conditions: with insulin promoter-GFP reporter in HEK293
Observation Type: AIRE transcriptional activation functional score

# example entries with known answers
D389R    0.387
P492M    1.76
Y90Q    -0.537
S241I    1.06
P466T    1.12

[ask] Requested field: AIRE transcriptional activation functional score. Item: D84L
[reply] -0.0937

[ask] Requested field: AIRE transcriptional activation functional score. Item: K114L
[reply] 1.03

[ask] Requested field: AIRE transcriptional activation functional score. Item: N244G
[reply] 0.138

[ask] Requested field: AIRE transcriptional activation functional score. Item: P233T
[reply] 1.07

[ask] Requested field: AIRE transcriptional activation functional score. Item: F43A
[reply] -0.325

[ask] Requested field: AIRE transcriptional activation functional score. Item: P367F
[reply] 1.13

[ask] Requested field: AIRE transcriptional activation functional score. Item: P143M
[reply] 1.02

[ask] Requested field: AIRE transcriptional activation functional score. Item: I330P
[reply] 1.33
